# Assay explanation: Human HepG2 cell viability assay in 384 well format
# Assay type: toxicity, cell-based
# Parameters: dose 125 nL, time 70.5 hour; concentration not given beside the values
# Condition parameters: HepG2 cells, read-out: Inhibition
compounds and their reported cytotoxicity at 70.5 h
Report only the number, with the unit % understood.

Example entries begin here.
Compound | Units of measure | cytotoxicity at 70.5 h
Cn1ccnc1-c1nc(NC2CCCC2)ncc1-c1cccc(F)c1 | % | 0.205
c1cnc2[nH]nc(C3CCN(Cc4ccsc4)CC3)c2c1 | % | -4.44

We now examine a further compound.
q: Could you share which cytotoxicity at 70.5 h value was measured for COc1ccc(C[C@@H]2CC[C@H](CN(C)C3CCN(C)CC3)O2)cc1 ?
a: -5.62
